Ref: patent US11447466B2

- System name: UniProt Q9NR97
- Sequence (Q9NR97 27-1041): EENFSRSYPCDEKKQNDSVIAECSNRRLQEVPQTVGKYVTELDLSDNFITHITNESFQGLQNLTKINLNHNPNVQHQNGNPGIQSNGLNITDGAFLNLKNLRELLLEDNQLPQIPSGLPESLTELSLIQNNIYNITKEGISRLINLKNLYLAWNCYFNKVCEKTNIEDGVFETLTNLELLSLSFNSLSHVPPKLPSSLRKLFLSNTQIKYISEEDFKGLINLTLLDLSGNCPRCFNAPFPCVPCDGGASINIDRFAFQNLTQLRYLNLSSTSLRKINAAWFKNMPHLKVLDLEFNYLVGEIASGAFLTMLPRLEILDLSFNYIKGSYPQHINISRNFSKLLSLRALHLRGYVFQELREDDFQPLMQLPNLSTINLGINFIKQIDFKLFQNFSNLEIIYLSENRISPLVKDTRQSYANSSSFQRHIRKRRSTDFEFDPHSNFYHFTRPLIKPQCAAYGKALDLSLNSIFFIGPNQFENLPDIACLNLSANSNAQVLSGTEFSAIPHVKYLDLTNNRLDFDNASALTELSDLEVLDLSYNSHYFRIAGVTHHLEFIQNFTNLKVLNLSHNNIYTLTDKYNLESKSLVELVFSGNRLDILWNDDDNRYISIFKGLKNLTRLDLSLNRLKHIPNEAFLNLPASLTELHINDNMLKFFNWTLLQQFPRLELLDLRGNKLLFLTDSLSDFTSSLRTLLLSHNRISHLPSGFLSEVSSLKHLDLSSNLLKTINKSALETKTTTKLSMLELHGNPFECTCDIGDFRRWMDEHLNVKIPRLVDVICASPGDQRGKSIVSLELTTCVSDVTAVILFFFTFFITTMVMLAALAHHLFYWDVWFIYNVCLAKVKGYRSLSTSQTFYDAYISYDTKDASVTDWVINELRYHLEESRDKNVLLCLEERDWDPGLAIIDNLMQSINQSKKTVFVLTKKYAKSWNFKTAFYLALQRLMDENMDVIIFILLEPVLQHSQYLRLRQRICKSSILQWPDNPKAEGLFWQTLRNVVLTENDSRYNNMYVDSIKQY
- Method summary: TLR8 inhibition reporter assay (HEK-Blue SEAP reporter, R848 stimulation)
- Condition details: HEK-Blue cells overexpressing human TLR8, SEAP reporter, R848 15.9 μM, 22 hour incubation
- From the text: TLR7/8/9 Inhibition Reporter Assays HEK-Blue™-cells (Invivogen) overexpressing human TLR7, TLR8 or TLR9 receptors were used for screening inhibitors of these receptors using an inducible SEAP (secreted embryonic alkaline phosphatase) reporter gene under the control of the IFN-β minimal promoter fused to five NF-κB and AP-1-binding sites. […]
Recorded pIC50 values for a group of compounds are listed next.
Notebook: values listed as pIC50 are -log10 of the concentration (mol/L).

Compound	System name	pIC50
Cc1c(-c2[nH]c3ccc(C4CCN(C5COC5)CC4)cc3c2C(C)C)cn(C)c(=O)c1C#N	UniProt Q9NR97	8.03
Cc1cc(-c2[nH]c3ccc(C4CCN(CC5CC5)CC4)cc3c2C(C)C)cn(C)c1=O	UniProt Q9NR97	7.87

Prompt: Dear colleague, I am looking for the recorded pIC50 of the following compound: Cc1cc(-c2[nH]c3ccc(C4CCNCC4)cc3c2C(C)C)cn(-c2ccccc2)c1=O
Completion: 7.71

Prompt: Need pIC50 of Cc1cc(-c2[nH]c3ccc(C4CCNCC4)cc3c2C(C)C)cn(C2CCOC2)c1=O (stereo not shown) , thanks.
Completion: 6.87
